# Assayed Target: human mGluR5 (Homo sapiens)
# Sequence (P41594 21-1180 isoform P41594-2 limits assumed): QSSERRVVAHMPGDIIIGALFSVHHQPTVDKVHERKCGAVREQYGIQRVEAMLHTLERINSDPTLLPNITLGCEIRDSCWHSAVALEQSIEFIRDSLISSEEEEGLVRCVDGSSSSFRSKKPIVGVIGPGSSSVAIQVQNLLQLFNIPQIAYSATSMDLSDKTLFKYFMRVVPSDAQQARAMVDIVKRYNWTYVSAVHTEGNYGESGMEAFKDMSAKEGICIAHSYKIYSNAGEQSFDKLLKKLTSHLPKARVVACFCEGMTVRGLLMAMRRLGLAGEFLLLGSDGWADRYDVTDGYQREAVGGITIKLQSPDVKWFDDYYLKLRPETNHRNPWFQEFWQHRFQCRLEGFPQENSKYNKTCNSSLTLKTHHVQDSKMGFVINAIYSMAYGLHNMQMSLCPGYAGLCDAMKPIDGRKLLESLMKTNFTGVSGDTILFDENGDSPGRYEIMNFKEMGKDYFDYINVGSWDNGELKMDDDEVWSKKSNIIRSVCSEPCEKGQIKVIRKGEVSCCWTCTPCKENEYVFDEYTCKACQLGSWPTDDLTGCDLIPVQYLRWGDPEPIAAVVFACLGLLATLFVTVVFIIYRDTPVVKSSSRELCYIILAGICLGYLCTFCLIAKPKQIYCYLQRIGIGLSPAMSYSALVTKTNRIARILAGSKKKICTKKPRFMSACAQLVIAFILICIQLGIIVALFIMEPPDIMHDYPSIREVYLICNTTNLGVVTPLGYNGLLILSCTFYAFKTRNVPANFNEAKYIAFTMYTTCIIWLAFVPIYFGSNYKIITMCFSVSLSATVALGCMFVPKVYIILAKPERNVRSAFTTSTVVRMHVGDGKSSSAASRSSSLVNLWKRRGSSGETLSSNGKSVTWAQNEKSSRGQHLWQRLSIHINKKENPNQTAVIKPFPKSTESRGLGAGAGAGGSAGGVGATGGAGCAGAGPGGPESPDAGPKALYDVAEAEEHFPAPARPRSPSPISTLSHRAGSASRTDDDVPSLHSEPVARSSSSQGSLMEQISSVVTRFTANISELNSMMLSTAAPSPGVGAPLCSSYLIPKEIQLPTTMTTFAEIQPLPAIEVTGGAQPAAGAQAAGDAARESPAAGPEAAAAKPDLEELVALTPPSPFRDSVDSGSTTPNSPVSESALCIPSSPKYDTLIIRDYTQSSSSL
# Method Description: Cell-based functional Ca2+ mobilization assay (FDSS), potentiation of glutamate EC20 response, HEK293A cells transfected with human mGluR5a (H10H or H12H cell line)
# Run Conditions: HEK293-A, H10H cell line expressing recombinant human mGluR5; in presence of glutamate EC20; % of maximal glutamate response; ** = compound is an antagonist
Quantity Name: Emax (%)

Here are 10 compounds together with their reported answers.
Compound	Quantity Unit	Test Value
O=C(c1ccc(F)cc1)N1CCn2nc(OCc3ccc4nccn4c3)cc2C1 [Example B118]	%	25
Cc1cc(COc2cc3n(n2)CCN(C(=O)c2ccc(F)cc2)C3)ccn1 [Example B4]	%	26
O=C(c1ccc(F)cc1F)N1CCn2nc(OCc3ccccc3)cc2C1 [Example B102]	%	76
O=C(c1cc[nH]n1)N1CCn2nc(OCc3ccccc3)cc2C1 [Example B52]	%	71
Cn1ccc(C(=O)N2CCn3nc(OCc4cccc(F)c4)cc3C2)c1 [Example B92]	%	52
Cn1c(Cl)ccc1C(=O)N1CCn2nc(OCc3ccccc3)cc2C1 [Example B81]	%	69
O=C(c1cccc(Cl)c1)N1CCn2nc(OCc3ccccc3)cc2C1 [Example B43]	%	51
Cc1ncc(C(=O)N2CCn3nc(OCc4ccccc4)cc3C2)cn1 [Example B83]	%	27
Cc1ccoc1C(=O)N1CCn2nc(OCc3ccccc3)cc2C1 [Example B54]	%	20
Cc1nccc(C(=O)N2CCn3nc(OCc4ccccc4)cc3C2)n1 [Example B31]	%	28

(a) Cn1cc(C(=O)N2CCn3nc(OCc4cccc(F)c4)cc3C2)cc1Cl [Example B93]
(b) O=C(c1ccc(F)cc1)N1CCn2nc(OCc3ccccn3)cc2C1 [Example B18]
Exercise: Form: Entry with minimum Emax (choose one): a / b Write the label of whichever entry you select.
Key: b

(I) O=C(c1ccc(F)cn1)N1CCn2nc(OCc3ccccc3)cc2C1 [Example B28]
(II) O=C(c1ccc(F)cc1)N1CCn2nc(OCc3ccncc3Cl)cc2C1 [Example B136]
Exercise: Smaller Emax value, I vs II ? Returns: label corresponding to the selected item.
Key: II

(1) C[C@@H]1Cn2nc(OCc3ccccc3)cc2CN1C(=O)c1ccc(F)cc1 [Example B7]
(2) CC(C)(C)NCC(=O)N1CCn2nc(OCc3ccccc3)cc2C1 [Example B25]
(3) O=C(c1ccc(F)cc1)N1CCCn2nc(OCc3ccncc3)cc2C1 [Example B89]
(4) COc1cccc(C(=O)N2CCn3nc(OCc4ccccc4)cc3C2)n1 [Example B82]
Exercise: Kindly order the items shown according to Emax, from the highest value down. Write the labels in rank order as requested.
Key: 1, 3, 2, 4

(I) Cc1ccc(COc2cc3n(n2)CCN(C(=O)c2ccc(F)cc2)C3)cc1 [Example B12]
(II) N#Cc1cccc(COc2cc3n(n2)CCN(C(=O)c2ccc(F)cc2)C3)c1 [Example B3]
Exercise: Given I and given II , which shows the smaller recorded Emax? Mark your answer with the label of the selected entry.
Key: I

---

# Assayed Target: human mGluR5 (Homo sapiens)
# Method Description: Cell-based functional Ca2+ mobilization assay (FDSS), potentiation of glutamate EC20 response, HEK293A cells transfected with human mGluR5a (H10H or H12H cell line)
# Run Conditions: HEK293-A, H10H cell line expressing recombinant human mGluR5; in presence of glutamate EC20; % of maximal glutamate response; ** = compound is an antagonist
Quantity Name: Emax (%)

Below are worked cases with known answers.
Compound	Assayed Target	Quantity Unit	Emax
O=C(c1ccccc1C(F)(F)F)N1CCn2nc(OCc3ccccc3)cc2C1 [Example B41]	human mGluR5 (Homo sapiens)	%	25
O=C(C1CC1c1ccccc1)N1CCn2nc(OCc3ccccc3)cc2C1 (centres unmarked) [Example B71]	human mGluR5 (Homo sapiens)	%	30
CN(C)c1cccc(C(=O)N2CCn3nc(OCc4ccccc4)cc3C2)n1 [Example B88]	human mGluR5 (Homo sapiens)	%	40

(P) CC(C)OCC(=O)N1CCn2nc(OCc3ccccc3)cc2C1 [Example B23]
(Q) Cc1cccc(COc2cc3n(n2)CCN(C(=O)c2ccc(F)cc2)C3)c1 [Example B13]
Exercise: Given P and Q , report the one with the higher recorded Emax. Reply with the label of the item you choose.
Key: Q
(Q: 59%, P: 34%)

---

# Assayed Target: human mGluR5 (Homo sapiens)
# Method Description: Cell-based functional Ca2+ mobilization assay (FDSS), potentiation of glutamate EC20 response, HEK293A cells transfected with human mGluR5a (H10H or H12H cell line)
# Run Conditions: HEK293-A, H10H cell line expressing recombinant human mGluR5; in presence of glutamate EC20; % of maximal glutamate response; ** = compound is an antagonist
Quantity Name: Emax (%)

Here's what some known entries look like.
Smiles String	Assayed Target	Quantity Unit	Emax
O=C(c1cccc(Cl)c1)N1CCn2nc(OCc3cccc(F)c3)cc2C1	human mGluR5 (Homo sapiens)	%	66
O=C(c1cncc(F)c1)N1CCn2nc(OCc3ccccc3)cc2C1	human mGluR5 (Homo sapiens)	%	48
O=C(c1ccccc1Cl)N1CCn2nc(OCc3ccccc3)cc2C1	human mGluR5 (Homo sapiens)	%	33
N#Cc1cccc(COc2cc3n(n2)CCN(C(=O)c2cccc(F)c2)C3)c1	human mGluR5 (Homo sapiens)	%	37
O=C(c1ccc(F)c(C(F)(F)F)c1)N1CCn2nc(OCc3ccccc3)cc2C1	human mGluR5 (Homo sapiens)	%	58

(A) O=C(CC(F)(F)F)N1CCn2nc(OCc3ccccc3)cc2C1
(B) O=C(c1ccc(F)cc1)N1CCn2nc(OCc3cccc(F)c3)cc2C1
Exercise: Looking at recorded values for Emax, does A or B come in lower? Mark your selection by writing its label.
Key: A

(A) O=C(c1ccc(F)cc1)N1CCn2nc(OCc3ccnc(F)c3)cc2C1
(B) O=C(c1cnc[nH]1)N1CCn2nc(OCc3ccccc3)cc2C1
Exercise: Hi there, can you help? I need to know whether A or B has lower measured Emax. Use the label to indicate which entry you chose.
Key: B

(a) C[C@H]1Cn2nc(OCc3ccccc3)cc2CN1C(=O)c1ccc(Cl)n1C
(b) N#Cc1cc(F)cc(C(=O)N2CCn3nc(OCc4cccc(F)c4)cc3C2)c1
Exercise: Identify the entry with the larger Emax. Options: a and b # answer = label of selected item
Key: a
(a: 69%, b: 32%)

(A) O=C(c1ccc(F)cc1)N1CCn2nc(OCc3ccc(F)cc3)cc2C1
(B) COc1ccc(C(=O)N2CCn3nc(OCc4ccccc4)cc3C2)cc1F
(C) N#Cc1ccc(COc2cc3n(n2)CCN(C(=O)c2ccccc2)C3)cc1
Exercise: Let's sort these by Emax, smallest first. Go ahead? I would appreciate it if you listed the labels in the requested order.
Key: B, C, A

(P) O=C(c1ccccc1)N1CCn2nc(OCc3ccccc3)cc2C1
(Q) N#Cc1ccc(C(=O)N2CCn3nc(OCc4ccccc4)cc3C2)c(F)c1
Exercise: API: POST /compare with P and Q ; response names the item with higher Emax. Record your answer as the label of the chosen record.
Key: P

(I) COc1ccc(C(=O)N2CCn3nc(OCc4ccccc4)cc3C2)cn1
(II) O=C(c1ccc(F)cc1F)N1CCn2nc(OCc3ccccc3F)cc2C1
Exercise: Which record shows the lower Emax: the first, I , or the second, II ? Lab log: write the label of the selected item as the result.
Key: I
(I: 27%, II: 76%)

---

# Assayed Target: human mGluR5 (Homo sapiens)
# Method Description: Cell-based functional Ca2+ mobilization assay (FDSS), potentiation of glutamate EC20 response, HEK293A cells transfected with human mGluR5a (H10H or H12H cell line)
# Run Conditions: H10H cell line expressing recombinant human mGluR5; in presence of glutamate EC20; ** = compound is an antagonist; read-out: pEC50 (converted)
Measured EC50, listed per entry.

In the examples that follow, each entry is paired with its recorded EC50.
Smiles String	Assayed Target	Test Value
COc1ccc(C(=O)N2CCn3nc(OCc4ccccc4)cc3C2)cc1F	human mGluR5 (Homo sapiens)	> 30.2 µM
Cc1cc(COc2cc3n(n2)CCN(C(=O)c2ccc(F)cc2)C3)ccn1	human mGluR5 (Homo sapiens)	> 10 µM

For reference, reported EC50 for O=C(c1cc(F)ccc1F)N1CCn2nc(OCc3ccccc3)cc2C1 stands at 0.417 µM

---

# Assayed Target: human mGluR5 (Homo sapiens)
# Method Description: Cell-based functional Ca2+ mobilization assay (FDSS), potentiation of glutamate EC20 response, HEK293A cells transfected with human mGluR5a (H10H or H12H cell line)
# Run Conditions: H10H cell line expressing recombinant human mGluR5; in presence of glutamate EC20; ** = compound is an antagonist; read-out: pEC50 (converted)
Quantity Name: EC50

Smiles String	Assayed Target	EC50
Cc1ncccc1C(=O)N1CCn2nc(OCc3ccccc3)cc2C1	human mGluR5 (Homo sapiens)	> 30.2 µM
N#Cc1cc(F)cc(C(=O)N2CCn3nc(OCc4ccccc4)cc3C2)c1	human mGluR5 (Homo sapiens)	> 30.2 µM
O=C(c1ccc(F)cc1)N1CCn2nc(OCc3ccnc(F)c3)cc2C1	human mGluR5 (Homo sapiens)	≥ 10 µM
CC(=O)N1CCn2nc(OCc3ccccc3)cc2C1	human mGluR5 (Homo sapiens)	> 30.2 µM
CC(C)(C)NCC(=O)N1CCn2nc(OCc3ccccc3)cc2C1	human mGluR5 (Homo sapiens)	> 30.2 µM

Tested on human mGluR5 (Homo sapiens): CN(C)c1cccc(C(=O)N2CCn3nc(OCc4ccccc4)cc3C2)n1 . Observed EC50: 0.617 µM

The recorded EC50 with human mGluR5 (Homo sapiens) for O=C(c1ccc(F)cc1)N1CCn2nc(OCc3ncccn3)cc2C1 was > 30.2 µM

Record Cn1cc(C(=O)N2CCn3nc(OCc4cccc(F)c4)cc3C2)cc1Cl ; system human mGluR5 (Homo sapiens); EC50 = 0.347 µM

Entry O=C(c1cnc[nH]1)N1CCn2nc(OCc3ccccc3)cc2C1 , human mGluR5 (Homo sapiens) data, EC50 value: > 30.2 µM

Form: item O=C(CC1CCCC1)N1CCn2nc(OCc3ccccc3)cc2C1 ; test system human mGluR5 (Homo sapiens); EC50: 0.479 µM

Short answer on human mGluR5 (Homo sapiens) for O=C(c1ccc(F)cc1F)N1CCn2nc(OCc3ccccc3F)cc2C1 , EC50: 0.166 µM

The reported human mGluR5 (Homo sapiens) EC50 of CO[C@](C(=O)N1CCn2nc(OCc3ccccc3)cc2C1)(c1ccccc1)C(F)(F)F is > 30.2 µM
